assay: absolute recovery over vacuum-assisted evaporative concentration; higher = better recovery; conditions: wastewater influent; enrichment method: VEC
result.type: absolute recovery (%)
Provide the reading as a plain figure in %.

IN: Entry O=C([O-])Cc1ccccc1Nc1c(Cl)cc(O)cc1Cl [4-Hydroxydiclofenac A] : reported absolute recovery = ?
OUT: 92.8

IN: For the molecule COc1nc(C)nc(N)n1 [2-Amino-4-methoxy-6-methyl-1-3-5-triazin] , what absolute recovery is on record?
OUT: 106

IN: Fill blank: measured absolute recovery of the molecule CCCCCCCCn1sccc1=O [2-n-Octyl-4-isothiazolin-3-on (=OIT)] is ____.
OUT: 45.2

IN: Look up absolute recovery: CC(C)c1nc(CN(C)C(=O)NC(C(=O)NC(Cc2ccccc2)CC(O)C(Cc2ccccc2)NC(=O)OCc2cncs2)C(C)C)cs1 (stereo not given) [Ritonavir]
OUT: 99.5

IN: // returns reported absolute recovery for input O=C([O-])COc1ccc(Cl)cc1Cl [2-4-D]
OUT: 106

----------
test: LC retention time (Atlantis T3, 5-95% MeOH gradient, 0.1% formic acid); higher = more retained / less polar
just bin them by LC retention time: c1: < 10 min; c2: ≥ 10 min and < 20 min; c3: ≥ 20 min

[
  {
    "compound": "CC1(C(=O)[O-])CCC2(C)CCC3(C)C(=CC(=O)C4C5(C)CCC(O)C(C)(C)C5CCC43C)C2C1 (stereo not given)",
    "group": "c3"
  }
]

IN: Exercise: read the entry COC(=O)C(Cc1ccccc1)NC(=O)C([NH3+])CC(=O)[O-] (stereo not given) and state which class it falls under.
OUT: c2

IN: Please classify: `CC(=O)NCCCS(=O)(=O)[O-]`
OUT: c1

IN: Class? Entry: `CC(C)c1ccc(N)cc1`
OUT: c2

IN: For `CN(C)S(=O)(=O)Nc1ccccc1` , which LC retention time bin applies?
OUT: c2

IN: Band for `CCC(C)(C)C(=O)OC1=C(c2ccc(Cl)cc2Cl)C(=O)OC12CCCCC2` ?
OUT: c3

IN: Class label required: CNC(=O)Oc1cc(C)c(S(C)=O)c(C)c1 (stereo not given) [Methiocarb-sulfoxide]
OUT: c2

IN: Just checking, what class would you give `NC(=O)N=C(N)N` here?
OUT: c1

IN: Hi, small favor: classify `CC(C)(Oc1ccc(Cl)cc1)C(=O)[O-]` by its LC retention time when you get a moment.
OUT: c2

IN: Into which category would you place CCC(C)C(=O)OC1CC(C)C=C2C=CC(C)C(CCC3CC(O)CC(=O)O3)C21 (stereo not given) ?
OUT: c3

IN: Please let me know in which category the item `c1ccc(CN2CC[NH2+]CC2)cc1` belongs.
OUT: c1

IN: Determine which band this compound sits in: `CN(C)c1nc(=O)n(C2CCCCC2)c(=O)n1C`
OUT: c2

IN: Band for `c1ccc2[nH]nnc2c1` ?
OUT: c2

IN: Which category fits this record: O=C(OC1CC2CCC(C1)[N+]21CCCC1)C(O)(c1ccccc1)c1ccccc1 (stereo not given)
OUT: c2

IN: Band of CCC(C)OC(=O)N1CCCCC1CCO (stereo not given) ?
OUT: c2

IN: For `COc1nn(CSP(=S)(OC)OC)c(=O)s1` , which LC retention time bin applies?
OUT: c2

IN: Quick check: band for CC(Cc1ccc(C(C)(C)C)cc1)C[NH+]1CCCCC1 (stereo not given)
OUT: c2

----------
assay: LC retention time (Atlantis T3, 5-95% MeOH gradient, 0.1% formic acid); higher = more retained / less polar
In this section, each of the compounds is paired with its reported LC retention time.
Express your answer in min, writing the number without its unit.

Some solved entries appear below for comparison.
[
  {
    "compound": "Clc1ccccc1C(c1ccccc1)(c1ccccc1)n1ccnc1",
    "LC retention time / min": 16.6
  },
  {
    "compound": "C#CC[N+](C)([O-])C(C)Cc1ccccc1 (centres undefined) [Deprenyl-N-Oxide]",
    "LC retention time / min": 12.2
  },
  {
    "compound": "CCC1OC(=O)C(C)C(OC2CC(C)(OC)C(O)C(C)O2)C(C)C(OC2OC(C)CC([NH+](C)C)C2O)C(C)(OC)CC(C)C(=O)C(C)C(O)C1(C)O (centres undefined)",
    "LC retention time / min": 16.9
  }
]

IN: What value of measured LC retention time is listed for `CC(C)(Oc1ccc(CCNC(=O)c2ccc(Cl)cc2)cc1)C(=O)[O-]` ?
OUT: 19.5

IN: Given the entry `CCNc1nc(N)nc(Cl)n1` , report its measured LC retention time.
OUT: 13.4

IN: Quick one: LC retention time of `COCCN(C(=O)C(=O)[O-])c1c(C)cccc1C` ?
OUT: 18.2

----------
test: absolute recovery over mixed-bed multilayer solid-phase extraction; higher = better recovery; details: wastewater effluent; enrichment method: SPE
Reported absolute recovery values follow for various molecules
Record the value in %, omitting the unit from your answer.

[
  {
    "molecule": "COc1ccc(C(C[N+](C)(C)[O-])C2(O)CCCCC2)cc1 (centres undefined) [Venlafaxine-N-Oxide]",
    "absolute recovery [%]": 94.6
  },
  {
    "molecule": "CCN(CC)C(=O)Nc1ccc(OCC(O)C[NH2+]C(C)(C)C)c(C(C)=O)c1 (centres undefined)",
    "absolute recovery [%]": 90.1
  },
  {
    "molecule": "CC12CCC3=C4CCC(=O)C=C4CCC3C1CCC2(O)CC#N (centres undefined)",
    "absolute recovery [%]": 79
  },
  {
    "molecule": "C[NH2+]CC(O)c1cccc(O)c1 (centres undefined)",
    "absolute recovery [%]": 78.5
  },
  {
    "molecule": "Oc1ccc(C=Cc2cc(O)cc(O)c2)cc1",
    "absolute recovery [%]": 48.4
  },
  {
    "molecule": "CCCCCOC(=O)[N-]c1nc(=O)n(C2OC(C)C(O)C2O)cc1F (centres undefined)",
    "absolute recovery [%]": 90.8
  }
]

IN: # get_value(readout='absolute recovery', item= CCC(CC)OC1C=C(C(=O)[O-])CC([NH3+])C1NC(C)=O (centres undefined) )
OUT: 44.2

IN: Item under review: CC(=O)NCC1CN(c2ccc(N3CCOCC3)c(F)c2)C(=O)O1 (centres undefined) . Reported absolute recovery?
OUT: 92

IN: What value of measured absolute recovery is listed for CC=CC(=O)N(CC)C(CC)C(=O)N(C)C (centres undefined) [Crotethamide] ?
OUT: 86.1

----------
assay: absolute recovery over mixed-bed multilayer solid-phase extraction; higher = better recovery; conditions: wastewater influent; enrichment method: SPE
Listing of entries alongside the reported absolute recovery.
Give a bare numeral; the unit % is implied.

Past entries and their recorded results:
[
  {
    "molecule": "COC(=O)c1cccc(C)c1S(=O)(=O)[N-]C(=O)Nc1nc(OCC(F)(F)F)nc(N(C)C)n1",
    "absolute recovery / %": 90.6
  },
  {
    "molecule": "CN1CCN(C)C1=O",
    "absolute recovery / %": 56.1
  },
  {
    "molecule": "CSc1nc2cc(Oc3cccc(Cl)c3Cl)c(Cl)cc2[nH]1",
    "absolute recovery / %": 61.3
  },
  {
    "molecule": "CCN(CC)C(=O)Nc1ccc(OCC(O)C[NH2+]C(C)(C)C)c(C(C)=O)c1 (stereo not drawn)",
    "absolute recovery / %": 84.6
  },
  {
    "molecule": "CCc1ccc(C(=O)NN(C(=O)c2cc(C)cc(C)c2)C(C)(C)C)cc1",
    "absolute recovery / %": 103
  },
  {
    "molecule": "COC(=O)c1ccc(C(F)(F)F)nc1S(=O)(=O)[N-]C(=O)Nc1nc(OC)cc(OC)n1",
    "absolute recovery / %": 89.3
  },
  {
    "molecule": "Clc1ccc(C(c2ccccc2)N2CC[NH2+]CC2)cc1 (stereo not drawn) [1-[(4-Chlorophenyl)phenylmethyl]piperazine]",
    "absolute recovery / %": 122
  }
]

Consider now this further molecule.
IN: # query: absolute recovery of entry CC(C)C([NH3+])C(=O)OCC(CO)OCn1cnc2c(=O)[nH+]c(N)[nH]c21 (stereo not drawn)
OUT: 69.5

----------
absolute recovery by entry:
experiment: absolute recovery over mixed-bed multilayer solid-phase extraction; higher = better recovery; details: wastewater influent; enrichment method: SPE
Value expressed in %; do not type the unit.

[
  {
    "molecule": "Cc1cc(O)nc(C(C)C)n1 [Pyrimidinol]",
    "readout.number": 96.4
  },
  {
    "molecule": "COc1ccc2c3c1OC1C(O)C=CC4C(C2)[NH+](C)CCC341 (stereo not given) [Codein]",
    "readout.number": 93
  },
  {
    "molecule": "COc1ccc(C(C[NH3+])C2(O)CCCCC2)cc1 (stereo not given) [N-N-Didesvenlafaxin]",
    "readout.number": 66.6
  },
  {
    "molecule": "CCCOCC(=Nc1ccc(Cl)cc1C(F)(F)F)n1ccnc1 [Triflumizole]",
    "readout.number": 61.8
  },
  {
    "molecule": "O=C(NCCN1CCOCC1)c1ccc(Cl)cc1 [Moclobemid]",
    "readout.number": 84.5
  },
  {
    "molecule": "CC(=O)C1CCC2C3CCC4=CC(=O)CCC4(C)C3CCC12C (stereo not given) [Progesteron]",
    "readout.number": 95.7
  }
]

IN: For COc1nc(NC(C)C)nc(NC(C)C)n1 [Prometon F] , what is its reported absolute recovery?
OUT: 92.7
